Target: T1, YxiN S108C/N444C (UniProt P42305 1-479, C61A;C267A;S108C;N444C)
T1 sequence: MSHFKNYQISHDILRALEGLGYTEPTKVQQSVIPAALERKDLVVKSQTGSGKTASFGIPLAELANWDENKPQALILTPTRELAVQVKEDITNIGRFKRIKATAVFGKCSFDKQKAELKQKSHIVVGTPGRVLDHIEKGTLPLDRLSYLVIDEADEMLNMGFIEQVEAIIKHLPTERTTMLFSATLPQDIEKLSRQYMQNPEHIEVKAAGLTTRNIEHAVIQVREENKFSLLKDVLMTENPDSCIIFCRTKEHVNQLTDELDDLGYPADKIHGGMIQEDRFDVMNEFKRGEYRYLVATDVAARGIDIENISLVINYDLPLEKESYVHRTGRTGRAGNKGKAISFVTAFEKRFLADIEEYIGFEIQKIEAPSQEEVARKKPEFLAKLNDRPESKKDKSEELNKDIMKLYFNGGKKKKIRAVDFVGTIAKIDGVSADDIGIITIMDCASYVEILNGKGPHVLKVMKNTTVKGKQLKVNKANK
Experiment: fluorescence anisotropy
endpoint: Kd (nM)

INSERT INTO results (binder, result) VALUES
  ('CGAGGUCCCAAGGGUUGGGCUGUUCGCCCAUU (structured_RNA) [32mer (FAM)]', 170);
